Provenance of the data: ChEMBL document CHEMBL4385668

# Test system: A549
# measurement notes: Cytotoxicity in human A549 cells assessed as reduction in cell viability incubated for 72 hrs by SRB assay
# Format: functional, cell-based
# recorded conditions: A549, 72 h
Measured IC50, listed per entry.
I only need the number, in µM, no unit after it.

The cases that follow already have their IC50 on record.
molecule: O=c1[nH]c(=O)n([C@H]2C[C@H](O)[C@@H](Cn3cc(CNc4ccn([C@@H]5O[C@H](CO)[C@@H](O)C5(F)F)c(=O)n4)nn3)O2)cc1F
recorded metric: IC50
result value: 79.3
//
molecule: CC(C)(C)OC(=O)O[C@@H]1[C@@H](Cn2cc(CNc3ccn([C@@H]4O[C@H](CO)[C@@H](O)C4(F)F)c(=O)n3)nn2)O[C@@H](n2ccc(N)nc2=O)C1(F)F
recorded metric: IC50
result value: 4.23
//
molecule: Nc1ccn([C@@H]2O[C@H](CO)[C@@H](O)[C@@H]2O)c(=O)n1 [CYTARABINE]
recorded metric: IC50
result value: 3.47
//
molecule: O=C(Nc1ccn([C@@H]2O[C@H](Cn3cc(CNc4ccn([C@@H]5O[C@H](CO)[C@@H](O)C5(F)F)c(=O)n4)nn3)[C@@H](OC(=O)c3ccccc3)C2(F)F)c(=O)n1)c1ccccc1
recorded metric: IC50
result value: 6.01
//
molecule: O=C(Nc1ccn([C@@H]2O[C@H](CO)[C@@H](O)C2(F)F)c(=O)n1)OCc1cn(C[C@H]2O[C@@H](n3ccc(NC(=O)c4ccccc4)nc3=O)C(F)(F)[C@@H]2OC(=O)c2ccccc2)nn1
recorded metric: IC50
result value: 3.32

Asked: Could you share which IC50 value was measured for Cc1cn([C@H]2C[C@H](N=[N+]=[N-])[C@@H](CO)O2)c(=O)[nH]c1=O [ZIDOVUDINE] ?
Given back: 11.9

###

# System: U-87 MG
# measurement notes: Cytotoxicity in human U87 cells assessed as reduction in cell viability incubated for 72 hrs by SRB assay
# Assay type: functional, cell-based, U-87MG ATCC
# reported IC50; entries follow
All answers are understood in µM, so give the number only.

Worked cases, IC50 given:
item smiles: Cc1cn([C@H]2C[C@H](n3cc(CNc4ccn([C@@H]5O[C@H](CO)[C@@H](O)C5(F)F)c(=O)n4)nn3)[C@@H](CO)O2)c(=O)[nH]c1=O
recorded metric: IC50
unit label: µM
result value: 10.8

item smiles: Cc1cn([C@H]2C[C@H](OC(=O)OC(C)(C)C)[C@@H](Cn3cc(CNc4ccn([C@@H]5O[C@H](CO)[C@@H](O)C5(F)F)c(=O)n4)nn3)O2)c(=O)[nH]c1=O
recorded metric: IC50
unit label: µM
result value: 6.97

item smiles: Nc1ccn([C@@H]2O[C@H](CO)[C@@H](O)[C@@H]2O)c(=O)n1
recorded metric: IC50
unit label: µM
result value: 2.88

item smiles: CC(C)(C)OC(=O)O[C@H]1C[C@H](n2cc(F)c(=O)[nH]c2=O)O[C@@H]1Cn1cc(CNc2ccn([C@@H]3O[C@H](CO)[C@@H](O)C3(F)F)c(=O)n2)nn1
recorded metric: IC50
unit label: µM
result value: 4.73

item smiles: O=C(Nc1ccn([C@@H]2O[C@H](CO)[C@@H](O)C2(F)F)c(=O)n1)OCc1cn(C[C@H]2O[C@@H](n3cc(F)c(=O)[nH]c3=O)C[C@@H]2O)nn1
recorded metric: IC50
unit label: µM
result value: 7.56

Next item in the queue.
Asked: Recorded IC50 of O=C(Nc1ccn([C@@H]2O[C@H](Cn3cc(CNc4ccn([C@@H]5O[C@H](CO)[C@@H](O)C5(F)F)c(=O)n4)nn3)[C@@H](OC(=O)c3ccccc3)C2(F)F)c(=O)n1)c1ccccc1 , please.
Given back: 5.5
